Entry source: patent US20240400654A1

Would you mind telling me the reported Ratio OD(Variant)/OD(WT) of each entry?
# assayed target: HRgpA-6H (Porphyromonas gingivalis) (UniProt P28784)
# measurement protocol: ELISA, FASEBA screening, coated HRgpA-6H; variant OD over parental WT Fab OD

Briefly, Ratio OD(Variant)/OD(WT) measured for KB001 parental mouse Fab FASEBA variant VH F101L (Fab, V domains shown) VH: EVQLKQSGPGLVAPSQSLSITCTVSGFSLSIYSVHWVRQPPGKGLEWLGMIWGGGSSDYNSALKSRLSISKDNSKSQVFLKMNSLQTDDTAMYYCARNGNLYAMDYWGQGTSVTVSS VL: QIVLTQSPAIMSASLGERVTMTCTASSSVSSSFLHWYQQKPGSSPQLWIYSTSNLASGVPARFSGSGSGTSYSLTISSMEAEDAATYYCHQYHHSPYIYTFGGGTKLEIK : 0.804

Briefly, Ratio OD(Variant)/OD(WT) measured for KB001 parental mouse Fab FASEBA variant VH S65P (Fab, V domains shown) VH: EVQLKQSGPGLVAPSQSLSITCTVSGFSLSIYSVHWVRQPPGKGLEWLGMIWGGGSSDYNSALKPRLSISKDNSKSQVFLKMNSLQTDDTAMYYCARNGNFYAMDYWGQGTSVTVSS VL: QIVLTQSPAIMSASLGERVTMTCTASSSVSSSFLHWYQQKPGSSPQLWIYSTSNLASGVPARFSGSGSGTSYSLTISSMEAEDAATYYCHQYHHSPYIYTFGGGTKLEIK : 0.984

Briefly, Ratio OD(Variant)/OD(WT) measured for KB001 parental mouse Fab FASEBA variant VH K64D (Fab, V domains shown) VH: EVQLKQSGPGLVAPSQSLSITCTVSGFSLSIYSVHWVRQPPGKGLEWLGMIWGGGSSDYNSALDSRLSISKDNSKSQVFLKMNSLQTDDTAMYYCARNGNFYAMDYWGQGTSVTVSS VL: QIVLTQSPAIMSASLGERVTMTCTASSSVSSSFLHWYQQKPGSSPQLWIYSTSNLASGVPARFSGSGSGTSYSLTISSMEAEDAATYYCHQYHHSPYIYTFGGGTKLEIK : 0.944
